Entries and their measured activity change, negative = inhibition follow.
molecular target: D(1A) dopamine receptor (Homo sapiens) (UniProt P21728); test: Antagonist of Human D 1 Dopamine Receptor: qHTS; conditions: HEK293 TREx D1 cells, calcium flux, dopamine EC80; at 10 µM; hits give low values; note: % is set by controls: 0 for no effect and ±100 for the full control effect
Sequence (P21728 whole entry, looked up): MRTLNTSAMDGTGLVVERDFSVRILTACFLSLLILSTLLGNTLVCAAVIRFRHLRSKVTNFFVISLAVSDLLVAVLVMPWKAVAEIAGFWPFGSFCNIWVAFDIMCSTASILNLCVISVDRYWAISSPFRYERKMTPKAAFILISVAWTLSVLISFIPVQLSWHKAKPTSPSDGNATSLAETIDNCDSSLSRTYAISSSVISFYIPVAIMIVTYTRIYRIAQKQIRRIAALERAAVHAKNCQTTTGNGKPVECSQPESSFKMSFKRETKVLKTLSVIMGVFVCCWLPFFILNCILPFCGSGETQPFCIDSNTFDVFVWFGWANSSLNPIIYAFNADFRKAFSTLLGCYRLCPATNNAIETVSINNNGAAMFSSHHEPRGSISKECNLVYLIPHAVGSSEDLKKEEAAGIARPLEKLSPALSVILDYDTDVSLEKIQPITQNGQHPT
Out of some 360,000 compounds screened, about 11,000 (3.1%) were called active. Only a selection was taken, and actives are over-represented in it overall.
Dear colleague, please return just the value in %, with no unit written.

Answered cases to consult:
>  <compound>
COc1ccc(C(=O)NCC(c2ccc(N(C)C)cc2)N2CCc3ccccc32)c(OC)c1 (stereo not given)

>  <experimental.system>
D(1A) dopamine receptor (Homo sapiens) (UniProt P21728)

>  <unit.of.measure>
%

>  <numeric.readout>
-5.15

$$$$
>  <compound>
CCCOn1c(-n2nc(C)cc2C)nc2ccccc2c1=O

>  <experimental.system>
D(1A) dopamine receptor (Homo sapiens) (UniProt P21728)

>  <unit.of.measure>
%

>  <numeric.readout>
-4.18

$$$$
>  <compound>
CC(CNc1ccc([N+](=O)[O-])cc1)NC(=O)c1ccccc1Br (stereo not given)

>  <experimental.system>
D(1A) dopamine receptor (Homo sapiens) (UniProt P21728)

>  <unit.of.measure>
%

>  <numeric.readout>
-2.12

$$$$
>  <compound>
CCc1cccc(-n2nnc(-c3nsc(NC(=O)c4ccc(C)cc4)n3)c2C)c1

>  <experimental.system>
D(1A) dopamine receptor (Homo sapiens) (UniProt P21728)

>  <unit.of.measure>
%

>  <numeric.readout>
16.6

$$$$

State its activity change, negative = inhibition: "CCOC(=O)c1ccc(CSc2nnc3cc(C)c4ccccc4n23)cc1"
11.8

----------
biological target: D(1A) dopamine receptor (Homo sapiens) (UniProt P21728); assay: Antagonist of Human D 1 Dopamine Receptor: qHTS; conditions: HEK293 TREx D1 cells, calcium flux, dopamine EC80; at 10 µM; hits give low values; note: % is set by controls: 0 for no effect and ±100 for the full control effect
Screen size: about 360,000 compounds; about 11,000 (3.1%) were called active. This is one part of a sample in which actives are shown more often than they occur.
measurement.type: activity change, negative = inhibition (%)
Report only the number, with the unit % understood.

Solved cases (3 shown):
>  <compound>
COc1cc(NC(=O)CCS(=O)(=O)c2ccc3c(c2)oc(=O)n3C)cc(OC)c1

>  <experimental.system>
D(1A) dopamine receptor (Homo sapiens) (UniProt P21728)

>  <unit.of.measure>
%

>  <numeric.readout>
-5.28

$$$$
>  <compound>
COc1cc(NC(=O)Nc2ccc(C)cc2)cc([N+](=O)[O-])c1

>  <experimental.system>
D(1A) dopamine receptor (Homo sapiens) (UniProt P21728)

>  <unit.of.measure>
%

>  <numeric.readout>
-3.95

$$$$
>  <compound>
Cc1ccc(S(=O)(=O)N2CCC(C(=O)Nc3cc(C)ccc3C)CC2)cc1

>  <experimental.system>
D(1A) dopamine receptor (Homo sapiens) (UniProt P21728)

>  <unit.of.measure>
%

>  <numeric.readout>
7.91

$$$$

// switching to the query compound
Please supply the value of reported activity change, negative = inhibition for the item "CCCCS(=O)(=O)c1oc(-c2cccs2)nc1S(=O)(=O)c1ccccc1"
11.6

----------
This section presents compounds with their documented activity change, negative = inhibition values.
target: D(1A) dopamine receptor (Homo sapiens) (UniProt P21728); assay: Antagonist of Human D 1 Dopamine Receptor: qHTS; settings: HEK293 TREx D1 cells, calcium flux, dopamine EC80; at 10 µM; hits give low values; note: % is set by controls: 0 for no effect and ±100 for the full control effect
About 11,000 (3.1%) of roughly 360,000 compounds were called active. The sample holds actives, similar compounds and a random draw of the others, so the mix is not that of the screen. Square brackets hold non-standard residues; d marks the D form. Peptide text beside a SMILES is read from it. * marks the point of attachment. PhAc = O=C(Cc1ccccc1)*
Write down the numeric answer in % and omit the unit.

Using the record for COc1cc(CN(CC2CCCO2)C(=O)c2ccccc2F)cc(OC)c1OC (stereo not drawn) , state its measured activity change, negative = inhibition.
-5.27

Provide activity change, negative = inhibition value for the following compound: "COc1ccc(C(=O)OCC(=O)Nc2cccc(C(C)=O)c2)cc1OC"
-4.31

Check the records and state activity change, negative = inhibition for CC(C)C[C@@H](NC(=O)[C@H]1CCCN1C(=O)Cc1ccccc1)C(N)=O (PhAc-[dP]-[dL]-NH2)
30

----------
Listed next: entries and their corresponding activity change, negative = inhibition.
Molecular target: D(1A) dopamine receptor (Homo sapiens)
Assay: Antagonist of Human D 1 Dopamine Receptor: qHTS; note: % is set by controls: 0 for no effect and ±100 for the full control effect
Details: HEK293 TREx D1 cells, calcium flux, dopamine EC80; at 10 µM; hits give low values
Procedure: Dopamine receptors (DARs) are involved in the etiology and/or therapy of a number of neuropsychiatric and endocrine disorders. […] Freshly passaged cells are plated in 1536 well black, clear bottom plates at a density of 4000 cells/well in 3 ul of complete media containing 1x tetracycline inducer. […] Agonist read: A 10 cycle (1 second/cycle) baseline measurement is taken and then the FDSS online 1536 pintool delivers 23 nl of compound library (as well as dopamine controls) to the plate. […]
The whole screen tested about 360,000 compounds, of which about 11,000 (3.1%) were called active. What follows is part of a selection rich in actives, with near analogues and random picks from the rest.
Enter your answer as a number in %; do not include the unit.

>  <molecule>
CCOc1ccc(N2CC(c3nc4ccccc4n3CCOc3ccc(OC)cc3)CC2=O)cc1 (stereo not given)

>  <activity change, negative = inhibition (%)>
-7.94

$$$$
>  <molecule>
COc1ccc(-n2ccnc(NCCc3ccc(Cl)cc3)c2=O)cc1OC

>  <activity change, negative = inhibition (%)>
-3.67

$$$$
>  <molecule>
CCOC(=O)C1CCN(c2ncnc3c2c(-c2ccccc2)cn3-c2cccc(C)c2)CC1

>  <activity change, negative = inhibition (%)>
7.99

$$$$
>  <molecule>
O=C1CSC(=S)N1/N=C/c1ccc(O)c([N+](=O)[O-])c1

>  <activity change, negative = inhibition (%)>
-20.2

$$$$
>  <molecule>
COc1cccc(N2CCN(S(=O)(=O)c3cc(Br)cc4c3N(C(=O)C3CC3)CC4)CC2)c1

>  <activity change, negative = inhibition (%)>
-4.38

$$$$

Report activity change, negative = inhibition, nothing else, for this molecule: Cc1ccc(NC(=O)c2ccc(S(=O)(=O)NCC3CCCO3)cc2)cc1C (stereo not given)
-12

State its activity change, negative = inhibition: Cc1ccc(C(=O)CC2(O)C(=O)N(CCc3ccccc3)c3ccc(Br)cc32)cc1 (stereo not given)
12.6

Name the recorded activity change, negative = inhibition of the item COC(=O)c1ccc(-c2noc(CN(Cc3ccccn3)CC3CCCO3)n2)cc1 (stereo not given) in your answer.
-16.4

For the molecule COc1ccc(OCCCn2c(C3CC(=O)N(c4ccc(F)cc4)C3)nc3ccccc32)cc1 (stereo not given) , report activity change, negative = inhibition.
-46.1

Using the record for CC1CCc2noc(NC(=O)c3ccc([N+](=O)[O-])cc3)c2C1 (stereo not given) , state its measured activity change, negative = inhibition.
-19.9

Note down activity change, negative = inhibition recorded for "CC(C)(C)NC(=O)NC(=O)COC(=O)Cc1ccc(Cl)cc1Cl"
-36.3

Identify the reported activity change, negative = inhibition for the following entry. "O=[N+]([O-])c1ccc(NCCCO)c(C(F)(F)F)c1"
6.05

Give a short answer stating reported activity change, negative = inhibition for "Cc1cc(C(=O)COC(=O)C2CC2)c(C)n1-c1ccc(F)cc1" .
-6.5

Query activity change, negative = inhibition for "CCN(c1ncnc2c1cnn2-c1ccc(C)cc1)C1CCCCC1"
13.5

Return activity change, negative = inhibition (reported value) for this molecule: "O=C(COc1ccccc1)N1CCN=C1SCc1cccc(F)c1"
-31.4

Quickly give me recorded activity change, negative = inhibition for CCc1ccccc1N1CC(c2nc3ccccc3n2CCCCOc2ccccc2)CC1=O (stereo not given)
-13.7

Tell me activity change, negative = inhibition reported for "O=C(Cc1ccc(F)cc1)N1CCN=C1SCc1cccc([N+](=O)[O-])c1"
-1.86

Provide one value: measured activity change, negative = inhibition of Cc1ccc(C(=O)OCC(=O)N2CC(C)CC(C)C2)cc1S(=O)(=O)N1CCCCC1 (stereo not given)
-14.5

Please give the documented activity change, negative = inhibition of CN(CC1CCCO1)S(=O)(=O)c1ccc(C(=O)Nc2ccc([N+](=O)[O-])cc2)cc1 (stereo not given)
-32.3

Fill in activity change, negative = inhibition for record "COc1ccccc1OCCC(=O)OCC(=O)NC(=O)NC(C)(C)C"
-0.18

Fill in reported activity change, negative = inhibition for this entry: "CCS(=O)(=O)N1CCc2cc(C(=O)NCc3ccc(C)cc3)ccc21"
-4.2

Look up and state reported activity change, negative = inhibition for "COc1ccc(-n2c(=O)c3c(c4cc(OC)ccc4n3C)n(Cc3cccc(C)c3)c2=O)cc1"
4.47

Provide only the value of recorded activity change, negative = inhibition for CCOc1ccc(C(=O)Nc2ccc(S(=O)(=O)NCC3CCCO3)cc2)cc1OCC (stereo not given)
-38.2

Supply reported activity change, negative = inhibition belonging to this molecule: "Cc1nc(CNS(=O)(=O)c2cc([N+](=O)[O-])ccc2C)cs1"
8.15

Look up and report measured activity change, negative = inhibition for this entry: "CCN(CCn1cccn1)Cc1cn[nH]c1-c1ccc(OC)cc1F"
0.481
